- MEASURED TARGET: T1, human CD33 (human, UniProt P20138 18-259, limits assumed)
- T1 construct: Human CD33 immobilized on the BLI sensor tip or the BIAcore C1 chip; also called Siglec-3
- T1 sequence (P20138 18-259 limits assumed): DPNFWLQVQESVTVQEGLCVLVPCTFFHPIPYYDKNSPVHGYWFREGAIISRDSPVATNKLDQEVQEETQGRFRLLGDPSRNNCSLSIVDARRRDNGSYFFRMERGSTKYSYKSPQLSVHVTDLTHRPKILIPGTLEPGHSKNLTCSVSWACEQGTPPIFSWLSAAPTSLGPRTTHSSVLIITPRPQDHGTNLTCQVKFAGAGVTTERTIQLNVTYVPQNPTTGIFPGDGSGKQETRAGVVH
- ASSAY REMARKS: SPR (BIAcore), Fab over CD33 on C1 chip
MEASUREMENT LABEL: kon (M⁻¹ s⁻¹)
Give the value, in units of M⁻¹ s⁻¹, as a plain number.

>  <BINDER>
AB-64.4 (antibody, V domains shown) VH: QVQLVQSGAEVKKPGASVKISCKASGYTFTDYNLHWVRQAPGQGLEWIGFIYPSNGITGYAQKFQGRATLTVDNSTSTAYMELSSLRSEDTAVYYCARSDVDYFDYWGQGTLLTVSS VL: DIVLTQSPDSLAVSLGERATINCRASQDVSTSTYSYMHWYQQKPGQPPKLLIKYASYLESGVPDRFSGSGSGTDFTLTISSLQAEDVAVYYCEHSWEIPLTFGQGTKLEIK

>  <UNIT DESCRIPTOR>
M⁻¹ s⁻¹

>  <kon>
5.4e+06

$$$$

Recorded result, AB-64.5 (antibody, V domains shown) VH: QVQLVQSGAEVKKPGASVKISCKASGYTFTDYNYHWVRQAPGQGLEWIGFIYPSNGITGYAQKFFGRATLTVDNSTSTAYMELSSLRSEDTAVYYCARSDVDYFDYWGQGTLLTVSS VL: DIVLTQSPDSLAVSLGERATINCRASQSVGTSTYSYMHWYQQKPGQPPKLLIKYASNLESGVPDRFSGSGSGTDFTLTISSLQAEDVAVYYCQHSWEIPLTFGQGTKLEIK , kon: 6.3e+06

Recorded result, AB-64.1.2 (antibody, V domains shown, Variant of AB-64.1) VH: QVQLVQSGAEVKKPGASVKISCKASGYTFTDYNLHWVRQAPGQGLEWIGFIYPSNRITGYAQKFQGRATLTVDNSTSTAYMELSSLRSEDTAVYYCARSDVDYFDYWGQGTLLTVSS VL: DIVLTQSPDSLAVSLGERATINCRASQSVSTSTYSYMHWYQQKPGQPPKLLIKYASNLESGVPDRFSGSGSGTDFTLTISSLQAEDVAVYYCQHSWEIPLTFGQGTKLEIK , kon: 2.74e+06

Recorded result, AB-64.6 (antibody, V domains shown) VH: QVQLVQSGAEVKKPGASVKISCKASGYTFTDYNYHWVRQAPGQGLEWIGFIYPSNGITGYAQKFQGRATLTVDNSTSTAYMELSSLRSEDTAVYYCARSDVDYFDYWGQGTLLTVSS VL: DIVLTQSPDSLAVSLGERATINCRASQDVSTSTYSYMHWYQQKPGQPPKLLIKYASFLESGVPDRFSGSGSGTDFTLTISSLQAEDVAVYYCQHSWEIPLTFGQGTKLEIK , kon: 6.26e+06

Recorded result, Chimeric Ab (antibody, V domains shown, Chimeric antibody with the variable regions of murine 2F5.1; also called parental antibody; comparator antibody) VH: EVQLQQSGPELVKPGASVKISCKASGYTFTDYNLHWVKLSHGKSLEWIGFIYPSNGITGYNQKFKNKATLTVDNSSSTAYMELRSLTSEDSAVYYCARSTVDYFDYWGQGTTLTVSS VL: DIVLTQSPASLAVSLGQRATMSCRASQSVSTSTYSYMHWYQQKPGQPPKLLIKYASNLESGVPARFSGSGSGTDFTLNIHPVEEEDTATYYCQHSWEIPLTFGAGTKLELK , kon: 995000
